TARGET OR SYSTEM: Ybr033w (UniProt P38073)
Sequence: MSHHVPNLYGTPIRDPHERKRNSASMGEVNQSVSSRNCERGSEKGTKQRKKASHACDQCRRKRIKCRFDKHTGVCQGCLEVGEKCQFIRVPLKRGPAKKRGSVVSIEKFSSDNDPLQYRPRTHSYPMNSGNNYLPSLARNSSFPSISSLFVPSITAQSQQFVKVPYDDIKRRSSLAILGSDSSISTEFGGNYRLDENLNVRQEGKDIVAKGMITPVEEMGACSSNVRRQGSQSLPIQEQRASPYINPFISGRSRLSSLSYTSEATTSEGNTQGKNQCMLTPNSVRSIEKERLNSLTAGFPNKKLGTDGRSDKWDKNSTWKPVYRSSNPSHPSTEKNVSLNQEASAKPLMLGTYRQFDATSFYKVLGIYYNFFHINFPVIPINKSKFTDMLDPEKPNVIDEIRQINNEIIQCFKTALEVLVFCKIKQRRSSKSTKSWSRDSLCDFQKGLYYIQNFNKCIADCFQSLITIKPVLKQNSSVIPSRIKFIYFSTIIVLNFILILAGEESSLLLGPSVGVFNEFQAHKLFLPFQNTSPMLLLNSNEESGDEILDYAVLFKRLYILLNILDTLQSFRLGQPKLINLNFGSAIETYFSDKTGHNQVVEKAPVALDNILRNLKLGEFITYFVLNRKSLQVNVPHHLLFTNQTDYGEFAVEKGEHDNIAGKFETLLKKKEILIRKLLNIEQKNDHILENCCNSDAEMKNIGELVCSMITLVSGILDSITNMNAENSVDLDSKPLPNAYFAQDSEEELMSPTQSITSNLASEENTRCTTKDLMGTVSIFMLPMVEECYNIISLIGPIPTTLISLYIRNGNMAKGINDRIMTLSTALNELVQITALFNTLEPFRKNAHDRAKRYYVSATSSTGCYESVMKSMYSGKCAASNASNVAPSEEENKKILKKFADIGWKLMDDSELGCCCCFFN
EXPERIMENT DESCRIPTION: PBM E-score (8-mer binding enrichment) (E-score (-0.5 to 0.5)); higher = stronger / more preferred TF binding
CONDITION SET: protein concentration: 200 nM; construct: GST-full length
Whole data set: some 33,000 sequences, median “E-score (-0.5 to 0.5)” near -0.012, cut for the highest 2% near 0.29. Many of the other results were omitted from the sample, so the highest values are more common in it than they were.
Classification field: enter Satisfied for PBM E-score values not below 0.07, Not satisfied for values below it.

RESIDUE STRING	ASSIGNED CATEGORY
AAAAGTTC	Satisfied
AAAAGTTT	Satisfied
AAAACTTA	Satisfied
AGTAGCAC	Not satisfied
GTTAACAA	Satisfied
GAAACTTA	Satisfied
CGCAGGTC	Not satisfied
AGATCTTC	Satisfied
ATGACAAC	Satisfied
AAAACTTC	Satisfied
CAAACTTA	Satisfied
CATTTACA	Satisfied
GAAACTTC	Satisfied
AACCTCGG	Not satisfied
AGGTAGTC	Not satisfied
TCTTGAAA	Satisfied
ATGACAAT	Satisfied
ACTGCAGC	Not satisfied
CCCTGCCC	Not satisfied
AACTTGAA	Satisfied
AAAAGTAA	Satisfied
GCGGGGAC	Not satisfied
ATTAACAC	Satisfied
GAATTGAC	Not satisfied
GAGTGAAA	Satisfied
CATTGAAG	Not satisfied
ACCCTTCA	Not satisfied
ATCCACAT	Satisfied
AAAAGTTG	Satisfied
AAGTGAAA	Satisfied
ACCTGAAC	Not satisfied
CTCGCAAC	Not satisfied
